Method summary: amyloid nucleation score (Sup35N fusion, yeast selection) (log enrichment); library NNK3; higher = more nucleation; inactive = no reads after selection;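 note: zero at mode of non-aggregating sequences after 7 days selection at 30°C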
Test readout: amyloid nucleation score

Some solved entries appear below for comparison.
{"Substance": "MSPIDGDDSG", "Assay value": "inactive"}
{"Substance": "SVTFDAWYCWMN", "Assay value": "inactive"}
{"Substance": "VDGATFFISWKIMARDSYRY", "Assay value": "inactive"}
{"Substance": "RRYSRVKVRRLFMRNNLMLN", "Assay value": 0.283}
{"Substance": "QTVNWSDDL", "Assay value": "inactive"}

I need amyloid nucleation score for every entry listed below, if you could help.
1. VPQNVGVLWSRRQEAVVLVS
2. GDSLGGTYYLLRSFFCCRDL
3. DNHVVKVQL

**Result**
1. inactive
2. inactive
3. inactive
